tested on: KM12; assay: NCI tumour cell line growth inhibition, 48 h
Calls of active or inactive are those of the source. Cut-off read from the data, not from the text of the source: active = GI50 up to about 1.1 µM and inactive = higher.
Each entry below lists one item and its recorded GI50 value.

Use these answered entries as a reference point.
>  <compound>
CC(C)=CCc1cc(/C=C/C(=O)O)cc(CC=C(C)C)c1O [ARTEPILLIN]

>  <GI50>
76 µM (inactive)

$$$$
>  <compound>
N#C/C(=C/c1ccc([N+](=O)[O-])o1)c1ccccc1

>  <GI50>
> 100 µM (inactive)

$$$$
>  <compound>
Oc1ccccc1-c1nn2c(CCCCCCCCc3nnc4sc(-c5ccccc5O)nn34)nnc2s1

>  <GI50>
21 µM (inactive)

$$$$
>  <compound>
O=C(NCCCCCCCCCCCCNC(=O)c1cccc2ccccc12)c1cccc2ccccc12

>  <GI50>
97.3 µM (inactive)

$$$$
>  <compound>
CN1CC=C(c2cccn2C)CC1

>  <GI50>
> 100 µM (inactive)

$$$$

Consider the additional compound presented here.
Exam item: GI50 for Cn1cnc([N+](=O)[O-])c1Sc1nc2cccnc2[nH]1 ?
Marked response: 54.1 µM (inactive)
